Target: Alpha-glucosidase (Saccharomyces cerevisiae S288c, UniProt P53341+P38158+P07265)
Test: Inhibition of Saccharomyces cerevisiae alpha-glucosidase using p-nitrophenyl-alpha-D-glucopyranoside as substrate preincubated for 0.25 hrs followed by substrate addition and measured after 0.5 hrs by spectrophotometric analysis
Assay type: protein assay
PROPERTY_MEASURED: IC50 (µM)
Answers are plain numbers, in µM.

# count of solved cases: 5
Cc1ccc(NC(=O)CSc2nnc(CCn3c4ccccc4c4ccccc43)o2)c([N+](=O)[O-])c1    67.35
COc1ccc(NC(=O)CSc2nnc(CCn3c4ccccc4c4ccccc43)o2)c([N+](=O)[O-])c1    85.95
Cc1cccc(NC(=O)CSc2nnc(CCn3c4ccccc4c4ccccc43)o2)c1    66.89
O=C(CSc1nnc(CCn2c3ccccc3c3ccccc32)o1)Nc1ccc(Cl)cc1Cl    92.05
O=C(CSc1nnc(CCn2c3ccccc3c3ccccc32)o1)Nc1ccc(Oc2ccccc2)cc1    39.52

Give IC50 for each listed item.
1. O=C(CSc1nnc(CCn2c3ccccc3c3ccccc32)o1)Nc1ccc(Cl)cc1
2. Cc1ccc(NC(=O)CSc2nnc(CCn3c4ccccc4c4ccccc43)o2)cc1
3. CCOc1ccc(NC(=O)CSc2nnc(CCn3c4ccccc4c4ccccc43)o2)cc1

## Result
22.07
80.64
21.39

----------
Molecular target: Alpha-amylase (Sus scrofa domesticus, UniProt Q7M328)
Sequence (Q7M328 whole entry): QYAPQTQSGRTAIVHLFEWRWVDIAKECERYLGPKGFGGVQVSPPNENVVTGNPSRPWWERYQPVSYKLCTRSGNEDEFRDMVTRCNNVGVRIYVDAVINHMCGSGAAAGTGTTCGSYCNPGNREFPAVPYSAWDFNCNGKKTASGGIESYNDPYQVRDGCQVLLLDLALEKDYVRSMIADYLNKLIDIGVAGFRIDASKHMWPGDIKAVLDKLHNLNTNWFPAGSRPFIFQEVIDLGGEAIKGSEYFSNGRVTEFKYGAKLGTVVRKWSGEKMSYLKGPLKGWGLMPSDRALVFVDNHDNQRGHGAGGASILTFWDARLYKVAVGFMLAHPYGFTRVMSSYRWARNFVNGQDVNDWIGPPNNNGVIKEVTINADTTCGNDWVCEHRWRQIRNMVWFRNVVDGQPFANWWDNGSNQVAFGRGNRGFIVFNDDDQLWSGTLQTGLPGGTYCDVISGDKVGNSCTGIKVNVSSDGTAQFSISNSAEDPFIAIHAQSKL
Assay: Inhibition of hog pancreatic alpha-amylase using soluble starch as substrate assessed as inhibition constant of enzyme-substrate complex preincubated for 10 mins followed by substrate addition and measured after 15 mins by Lineweaver-Burk plot analysis
PROPERTY_MEASURED: Ki (µM)
One number for each entry, in µM.

## Task Provide Ki, tested on Alpha-amylase (Sus scrofa domesticus, UniProt Q7M328), for O=C(CSc1nnc(CCn2c3ccccc3c3ccccc32)o1)Nc1ccc(F)cc1 .
## Result 63.3

----------
Target: Alpha-glucosidase (Saccharomyces cerevisiae S288c, UniProt P53341+P38158+P07265)
Assay: Inhibition of Saccharomyces cerevisiae alpha-glucosidase using p-nitrophenyl-alpha-D-glucopyranoside as substrate preincubated for 0.25 hrs followed by substrate addition and measured after 0.5 hrs by spectrophotometric analysis
Format: protein assay
PROPERTY_MEASURED: IC50 (µM)
One number for each entry, in µM.

Worked examples, 3 molecules total:
O=C(CSc1nnc(CCn2c3ccccc3c3ccccc32)o1)Nc1ccc(Cl)cc1[N+](=O)[O-]    37.96
O=C(CSc1nnc(CCn2c3ccccc3c3ccccc32)o1)Nc1ccccc1    43.26
O=C(CSc1nnc(CCn2c3ccccc3c3ccccc32)o1)Nc1ccc(F)cc1    27.73

Now let's try a different one.
## Task Give IC50 for O=C(CSc1nnc(CCn2c3ccccc3c3ccccc32)o1)Nc1ccc([N+](=O)[O-])cc1
## Result 22.22

----------
// Alpha-amylase (Sus scrofa domesticus) pIC50 records
One number for each entry, as −log10 of the molar value.

Here are 5 compounds together with their reported answers.
Cc1ccc(NC(=O)CSc2nnc(CCn3c4ccccc4c4ccccc43)o2)c([N+](=O)[O-])c1    4.26
Cc1ccc(NC(=O)CSc2nnc(CCn3c4ccccc4c4ccccc43)o2)cc1    3.90
Cc1ccc(NC(=O)CSc2nnc(CCn3c4ccccc4c4ccccc43)o2)c(C)c1    3.92
O=C(CSc1nnc(CCn2c3ccccc3c3ccccc32)o1)Nc1ccc(Cl)cc1Cl    4.03
O=C(CSc1nnc(CCn2c3ccccc3c3ccccc32)o1)Nc1ccc(Cl)cc1    4.08

Moving on to the next compound.
## Task Please report the measured pIC50 for Cc1cccc(NC(=O)CSc2nnc(CCn3c4ccccc4c4ccccc43)o2)c1
## Result 4.09
